Test system: HPPD polypeptides (wild-type SEQ ID NO:1 and mutants)
conditionParameters: total change in signal in presence of 50 μM Cmpd. 1, normalised to that without inhibitor; low substrate concentration
// Residual turnover lookup, one value per entry
// unit must come after the numeric part

31 (protein, mutant HPPD polypeptide) MADLYENPMGLMGFEFIEFASPTPGTLEPIFEIMGFTKVATHRSKNVHLYRQGEINLILNNEPNSIASYFAAEHGPSVCGMAFRVKDSQKAYNRALELGAQPIHIDTGPMELNLPAIKGIGGAPLYLIDRFGEGSSIYDIDFVYLEGVERNPVGAGLKVIDHLTHNVYRGRMVYWANFYEKLFNFREARYFDIKGEYTGLTSKAMSAPDGMIRIPLNEESSKGAGQIEEFLMQFNGEGIQHVAFLTDDLVKTWDALKKIGMRFMTAPGDEYYEMLEGRLPDHGEPVDQLQARGILLDGSSVEGDKRLLLQIFSETLMGPVFFEFIQRKGDDGFGPHSFKVLFESVERDQVRRGVLTAD :: 81%

Let us examine a further case.
IN: Identify measured Residual turnover associated with 57 (protein, mutant HPPD polypeptide) MADLYENPMGLMGFEFIEFASPTPGTLEPIFEIMGFTKVATHRSKNVHLYRQGEINLILNNEPNSIASYFAAEHGPSVCGMAFRVKDSQKAYNRALELGAQPIHIDTGPMELNLPAIKGIGGAPLYLIDRFGEGSSIYDIDFVYLEGVERNPVGAGLKVIDHLTHNVYRGRMVYWANFYEKLFNFREARYFDIKGEYTGLTSKAMSAPDGMIRIPLNEESSKGAGQIEEFLMQFNGEGIQHVAFLTDDLVKTWDALKKIGMRFMTAPGDEYYEMLEGRLPDHGEPVDQLQARGILLDGSSVEGDKRLLLQIFSETLMGPVFFEFIQRKGDDGFGPDSFTVLFESVERDQVRRGVLTAD
OUT: 68%
